Recorded values, source PubChem BioAssay (NCI).

Kindly state growth for each of the entries shown.
Test system: EKVX NSCLC
ASSAY_INFO: NCI-60 one-dose screen, 48 h (100 = growth as untreated, 0 = no growth, -100 = all killed)
DETAILS: 10 µM unless noted
The panel holds about 83,000 compounds, 20% with a hit somewhere; the sample as a whole holds those more often.
Give bare numbers, in %.

I would be grateful if you could provide growth for each of the following entries.
1. O=C1c2ccccc2C(=O)c2c(Nc3ccc(CCO)cc3)ccc(O)c21
2. Cc1cc(=O)c2c(C)ccc(C)c2[nH]1
3. CN1CCC(OC2c3ccccc3CCc3ccccc32)CC1
4. O=C1NC(=O)C2(CCCC2C(=O)O)N1 (stereo not drawn)
5. Cc1ccc(S(=O)(=O)N2CCc3ccc(O)c4c3C2CCc2ccccc2-4)cc1 (stereo not drawn)

1. 45
2. 102
3. 84.9
4. 94.2
5. 104

I would be grateful if you could provide growth for each of the following entries.
1. COc1ccc(OC2=CC(=O)c3ccc(C)nc3C2=O)cc1
2. COc1cc(CNCCCN2C(=O)c3ccc4c5c(ccc(c35)C2=O)C(=O)N(CCCNCc2cc(OC)c(OC)c(OC)c2)C4=O)cc(OC)c1OC
3. Cc1ccc(C2SCC(=O)N2NC(=O)c2[nH]c3ccc(F)cc3c2-c2ccccc2)cc1 (stereo not drawn)

1. 96.5
2. -72.9
3. 84.4

I would be grateful if you could provide growth for each of the following entries.
1. O=C1NC(=O)C(CSc2ccccc2)(c2ccccc2)N1 (stereo not drawn)
2. CCOc1ccc(-c2cnnn2-c2nonc2-n2cccc2)cc1
3. C=C(C)COC(=O)c1ccccc1C(=O)OCC1(C)CO1 (stereo not drawn)
4. CCN(CC)c1ccc2c(c1)OS(=O)(=O)N=C2
5. O=C(CCc1nnc2sc(/C=C\c3ccccc3)nn12)c1nc2ccccc2[nH]1

1: 110; 2: 60.9; 3: 103; 4: 88; 5: 88.6
